target of assay: T1, Human OSCAR (osteoclast-associated receptor), full length, on cells (human)
T1 chain: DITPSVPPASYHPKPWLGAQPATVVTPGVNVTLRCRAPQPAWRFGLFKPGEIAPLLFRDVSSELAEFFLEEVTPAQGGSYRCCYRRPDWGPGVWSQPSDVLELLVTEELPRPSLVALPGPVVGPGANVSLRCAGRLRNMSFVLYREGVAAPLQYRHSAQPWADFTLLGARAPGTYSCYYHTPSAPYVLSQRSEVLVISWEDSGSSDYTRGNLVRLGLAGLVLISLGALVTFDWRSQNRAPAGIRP
test summary: cell-based or functional assay
assay readout: IC50 (IL-8), ColI-induced IL-8 release from moDC, Donor 5 (nM)
Numeric answer only, unit nM assumed.

Q. Please give measured IC50 (IL-8), ColI-induced IL-8 release from moDC, Donor 5 of the following entry: 16F56 (antibody, V domains shown, Fully human mAb from HuMab mice; also called 16F56 (Hu); 16F56A2) VH: QVQLVQSGAEVKKPGSSVKVSCKASGGTFSNYAISWVRQAPGQGLEWMGRIIPILGIAHNAQKFQDRVTITADKSTSTAYMELSSLRSEDTAVYYCASPSSGKGLPYWFFDLWGRGTLVTVSS VL: DIQMTQSPSFLSASVGDRVTITCRASQSISSYLNWYQQKPGKAPKLLIYAASSLQSGVPSRFSGSGSGTDFTLTISSLQPEDFATYYCQCGYSTPLTFGGGTKVEIKR
A. 0.1

Q. // Input: 7F6A1 (antibody, V domains shown, Mouse anti-human OSCAR mAb; The heavy chain entry covers only VH-CH1 and the start of the hinge) VH: DVKLVESGGGLVKPGGSLKLSCAASGFTFSSYVMSWVRQTPEKRLEWVATISSGGSYTYYPDSVKGRFTISRDNAKNTLYLQMSSLKSEDTAMYYCTREGGNSPDYWGQGTTLTVSS VL: ENVLTQSPAIMSASPGEKVTMTCSVSSSISYMHWYRQKSFTSPQLWIYDTSKLASGVPGRFSGSGSGISYSLTISSMEAEDVATYYCFQGSEYPLTFGAGTKLELKR . Output its IC50 (IL-8), ColI-induced IL-8 release from moDC, Donor 5 only.
A. 2.49

Q. Return IC50 (IL-8), ColI-induced IL-8 release from moDC, Donor 5 for the following binder: 4F3B (antibody, V domains shown, Mouse anti-human OSCAR mAb (its isotype control is mIgG1); The heavy chain entry covers only VH-CH1 and the start of the hinge; It was fluorescein-labelled in the peptide array and Alexa Fluor 647-labelled in the flow binning; also called mAb 4F3B) VH: QVQLQQSGAELAKPGASVKMSCKASGFTFTSYWMHWVKQRPGQGLEWIGYINPSTDYTEYNQKFKDKATLTADKSSSTAYMQLSSLTSEDSAVYYCARRSPFAMDYWGQGTSVTVSS VL: DIVMTQSPSSLTVTAGEKVTMSCKSSQSLLNSGNQKNYLTWYQQKPGQPPKVLIYWASTRESGVPDRFTGSGSGTDFTLTISSVQAEDLAVYYCQNDYSYPLTFGTGTKLELKR
A. 0.43

Q. Give recorded IC50 (IL-8), ColI-induced IL-8 release from moDC, Donor 5. 3F7A9 (antibody, V domains shown, Mouse anti-human OSCAR mAb (its isotype control is mIgG1); The heavy chain entry covers only VH-CH1 and the start of the hinge; also called 3F7A9-1) VH: EIQLQQSGPELVKPGASVKVSCKASGYVFTSYNMYWVKQSHGKSLEWIGYIDPYNGGTRYNQKFKGKATLTVDKSSSTAYMHLNSLTSEDSAVYYCARLDYYGNFYWGQGTTLTVSS VL: DIKMTQSPSSMYASLGERVTITCKASQDINSFLSWLQQKPGKSPKTLIYRANRLVDGVPSRFSGSGSGQDYSLTISSLEYEDMGIYYCLQYDDFPYTFGGGTKLEIKR
A. 0.05
